- Tested system: galectin-3 (Homo sapiens)
- Construct: purchased IBL IBATGPO414
- Sequence (P17931 whole entry): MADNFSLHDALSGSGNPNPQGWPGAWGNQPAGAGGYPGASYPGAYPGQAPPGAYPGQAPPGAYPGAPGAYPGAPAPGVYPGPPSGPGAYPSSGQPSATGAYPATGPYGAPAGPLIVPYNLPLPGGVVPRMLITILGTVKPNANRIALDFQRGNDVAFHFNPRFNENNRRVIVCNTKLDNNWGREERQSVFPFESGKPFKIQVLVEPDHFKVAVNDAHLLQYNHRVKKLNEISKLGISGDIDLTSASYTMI
- Protocol notes: Galectin-3 Activity - ELISA Assay (inhibition of binding of galectin-3 to a Galβ1-3GlcNAc carbohydrate structure)
- Condition set: competitive ELISA; galectin-3 binding to immobilized Galβ1-3GlcNAcβ1-3Galβ1-4GlcNAcβ-PAA-biotin polymer; A450 readout; read-out: IC50 (μM), Galectin-3 Antagonist Activity

| Compound | Units symbol | IC50 |
| --- | --- | --- |
| COC1C(n2cc(-c3cc(F)c(F)c(F)c3)nn2)[C@@H](O)C(CO)O[C@H]1[C@H](OCc1ccc(Cl)cc1)C(=O)C1CC1 (stereo partly drawn) | µM | 1.18 |
| COC1C(n2cc(-c3cc(F)c(F)c(F)c3)nn2)[C@@H](O)C(CO)O[C@H]1[C@H](OCc1ccc(Cl)cc1)C(C)=O (stereo partly drawn) | µM | 0.82 |
| [2H]C([2H])([2H])OC1C(n2cc(-c3cc(F)c(F)c(F)c3)nn2)[C@@H](O)C(CO)O[C@H]1[C@H](OCc1ccc(Br)cc1)C(=O)c1ccsc1 (stereo partly drawn) | µM | 0.44 |
| [2H]C([2H])([2H])OC1C(n2cc(-c3cc(F)c(F)c(F)c3)nn2)[C@@H](O)C(CO)O[C@H]1[C@H](OCc1ccc(Br)cc1)C(=O)C([2H])([2H])C([2H])([2H])[2H] (stereo partly drawn) | µM | 0.5 |
| [2H]C([2H])([2H])OC1C(n2cc(-c3cc(F)c(F)c(F)c3)nn2)[C@@H](O)C(CO)O[C@H]1[C@H](OCc1ccc(Br)cc1)C(=O)c1ccc(F)cc1 (stereo partly drawn) | µM | 1.76 |
| [2H]C([2H])([2H])OC1C(n2cc(-c3cc(F)c(F)c(F)c3)nn2)[C@@H](O)C(CO)O[C@H]1[C@H](OCc1ccc(Cl)cc1)C(C)=O (stereo partly drawn) | µM | 1.09 |
| CCC(=O)[C@@H](OCc1ccc(Cl)cc1)[C@@H]1OC(CO)[C@H](O)C(n2cc(-c3cc(F)c(F)c(F)c3)nn2)C1OC (stereo partly drawn) | µM | 0.75 |
| [2H]C([2H])([2H])OC1C(n2cc(-c3cc(F)c(F)c(F)c3)nn2)[C@@H](O)C(CO)O[C@H]1[C@H](OCc1ccc(Br)cc1)C(=O)c1ccc(Cl)s1 (stereo partly drawn) | µM | 3.21 |
| [2H]C([2H])([2H])OC1C(n2cc(-c3cc(F)c(F)c(F)c3)nn2)[C@@H](O)C(CO)O[C@H]1[C@H](OCc1ccc(Cl)cc1)C(=O)C([2H])([2H])C([2H])([2H])[2H] (stereo partly drawn) | µM | 0.66 |
| COC1C(n2cc(-c3cc(F)c(F)c(F)c3)nn2)[C@@H](O)C(CO)O[C@H]1[C@H](OCc1ccc(C(F)(F)F)nc1)C(C)(C)O (stereo partly drawn) | µM | 57 |
| COC1C(n2cc(-c3cc(F)c(F)c(F)c3)nn2)[C@@H](O)C(CO)O[C@H]1[C@H](OCc1ccc(Cl)cc1)C(=O)c1cccs1 (stereo partly drawn) | µM | 0.84 |
| COC1C(n2cc(-c3cc(F)c(F)c(F)c3)nn2)[C@@H](O)C(CO)O[C@H]1[C@H](OCc1ccc(Cl)cc1)[C@@H](C)O (stereo partly drawn) | µM | 0.59 |
| COC1C(n2cc(-c3cc(F)c(F)c(F)c3)nn2)[C@@H](O)C(CO)O[C@H]1[C@H](OCc1ccc(Cl)cc1)C(=O)CC(C)C (stereo partly drawn) | µM | 0.63 |
| CC(=O)[C@@H](OCc1ccc(Br)cc1)[C@@H]1OC(CO)[C@H](O)C(n2cc(-c3cc(F)c(F)c(F)c3)nn2)C1O (stereo partly drawn) | µM | 0.32 |
| CCC(=O)[C@@H](OCc1ccc(Cl)cc1)[C@@H]1OC(CO)[C@H](O)C(n2cc(-c3cc(F)c(F)c(F)c3)nn2)C1O (stereo partly drawn) | µM | 0.32 |
